Assay: Biodistribution of radiotracers in normal mice
Assay type: in vivo, mouse
Details: normal male mice, 2 min
Reported Endpoint: Biodistribution: Kidney (% dose/g)

O=C(O)CC[C@H](NC(=O)N[C@@H](CCCCNC(=O)CCCCCNC(=O)CCc1ccc2c(c1)C[N+]13CC[N+]45CC(=O)[O][68Ga-3]14([O]C(=O)C3)([O]2)[O]c1ccc(CCC(=O)NCC(=O)O)cc1C5)C(=O)O)C(=O)O (stereo partly shown) [[^68Ga]1c]
47.2
C[C@H](NC(=O)CCc1ccc2c(c1)C[N+]13CC[N+]45CC(=O)[O][68Ga-3]41([O]C(=O)C3)([O]c1ccc(CCC(=O)NCCCCCC(=O)NCCCC[C@H](NC(=O)N[C@@H](CCC(=O)O)C(=O)O)C(=O)O)cc1C5)[O]2)C(=O)O (stereo partly shown) [[^68Ga]1d]
50.3
O=C(O)CC[C@H](NC(=O)N[C@@H](CCCCNC(=O)CCCCCNC(=O)CCc1ccc2c(c1)C[N+]13CC[N+]45CC(=O)[O][68Ga-3]14([O]C(=O)C3)([O]2)[O]c1ccc(CCC(=O)NCCNC(=O)CN2CCN(CC(=O)O)CCN(CC(=O)O)CCN(CC(=O)O)CC2)cc1C5)C(=O)O)C(=O)O (stereo partly shown) [[^68Ga]1g]
50.9
O=C(O)CC[C@H](NC(=O)CCc1ccc2c(c1)C[N+]13CC[N+]45CC(=O)[O][68Ga-3]41([O]C(=O)C3)([O]c1ccc(CCC(=O)NCCCCCC(=O)NCCCC[C@H](NC(=O)N[C@@H](CCC(=O)O)C(=O)O)C(=O)O)cc1C5)[O]2)C(=O)O (stereo partly shown) [[^68Ga]1f]
45.0
